Target: CCK receptor (pancreas) (Rattus norvegicus)
Construct: The whole pancreas was dissected free of fat tissue and was homogenized
Sequence (P30551 1-444): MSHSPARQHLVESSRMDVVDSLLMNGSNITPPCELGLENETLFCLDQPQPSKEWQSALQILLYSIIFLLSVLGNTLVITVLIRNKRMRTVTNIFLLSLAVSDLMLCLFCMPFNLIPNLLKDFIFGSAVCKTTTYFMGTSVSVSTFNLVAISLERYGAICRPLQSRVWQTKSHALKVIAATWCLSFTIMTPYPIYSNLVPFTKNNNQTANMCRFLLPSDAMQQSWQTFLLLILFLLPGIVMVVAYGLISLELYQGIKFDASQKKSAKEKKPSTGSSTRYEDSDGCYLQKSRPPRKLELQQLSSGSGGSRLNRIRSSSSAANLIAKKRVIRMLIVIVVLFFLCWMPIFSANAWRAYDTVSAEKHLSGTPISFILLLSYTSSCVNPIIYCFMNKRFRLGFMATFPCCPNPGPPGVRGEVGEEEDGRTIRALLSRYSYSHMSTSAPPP
Assay: CCK receptor binding (Pancreas), inhibition of 125I-CCK binding
Conditions: 125I-CCK-33, 37° C., 30 minutes, read-out: IC^50 ^125 I-CCK Pancreas
Just a reminder that ties go to Not fulfilled: only IC50 strictly below 10 µM counts as Fulfilled.

Some solved entries appear below for comparison.
Molecule: CCN(CC)CCCNC1=Nc2ccccc2C(c2ccccc2)=NC1NC(=O)Nc1cccc(C)c1 (centres unmarked)
Class assignment: Not fulfilled
--
Molecule: Cc1cccc(NC(=O)NC2N=C(c3ccccc3)c3ccccc3N=C2NCCCN2CCCC2=O)c1 (centres unmarked)
Class assignment: Fulfilled
--
Molecule: CSC1=Nc2ccccc2C(c2ccccc2F)=N[C@@H]1Cc1c[nH]c2ccccc12
Class assignment: Not fulfilled
--
Molecule: Cc1cccc(NC(=O)NC2N=C(c3ccccc3)c3ccccc3N=C2NCC(=O)N2CCCC2)c1 (centres unmarked)
Class assignment: Fulfilled

Here is the next item to consider.
Request: Record Cc1cccc(NC(=O)NC2N=C(c3ccccc3)c3ccccc3N=C2NCC(=O)N2CCN(C)CC2)c1 (centres unmarked) : is its IC50 strictly below 10 µM?
Response: Fulfilled
